B1: NET1 (parent)
chain: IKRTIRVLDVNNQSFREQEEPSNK

Variants of: B1
Test Protocol: protein stability index of a GFP-peptide fusion (GPS, HEK-293T) (PSI 1-6); higher = more stable;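 also: lentivirally expressed fusions sorted by FACS into six bins by GFP to DsRed ratio, PSI derived from sequencing read proportions per bin multiplied by bin number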
Experimental Context: c terminus: a fixed tail appended
Give protein stability index for every item shown.

protein stability index for `N11C` is 3.09

# protein stability index of `R16K` = 4.21

Lab note: `K24P` gave protein stability index of 3.55

variant `N11K` , protein stability index observed: 4.44

Lab note: measured protein stability index of `K2S` was 3.29

Measured protein stability index, `N12H` : 3.83

# variant `I1Q` ; its protein stability index = 3.69

Sure, the documented protein stability index for `N12L` is 3.25

Noted for `E17M` : its protein stability index reads 2.92

Documented protein stability index of `Q18C` : 3.09

The measured protein stability index associated with `E17K` reads 3.11

Note to self: protein stability index recorded for `E20Y` was 2.75

For this variant ( `S22Y` ), measured protein stability index is 3.34

Data credit: the supplement of paper PMC10567573
